Below: a set of entries, each annotated with reported viability.
Assay: drug combination growth inhibition, ovarian cancer – cell-based, oncology-focused library, rucaparib conditional, profiling panel (AID 1508598)
Settings: patient-derived ovarian cancer cells, CellTiter-Glo viability, 144 h; at 0.00488 µM; OCI-P5x cells; with rucaparib 20 µM; active compounds read low; 100% = cells with rucaparib alone
Active and inactive are the calls of the source.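 Rule for the calls: active = normalized viability below 100% at a tested concentration; inactive = the rest.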
Readout Kind: viability

[[record]]
compound = "CS(=O)(=O)N1CCc2c(-c3cnc(N)nc3)nc(N3CCOCC3)nc21"
assay_result = "113% (inactive)"

[[record]]
compound = "Nc1cccc2c1C(=O)N(C1CCC(=O)NC1=O)C2=O (stereo not given)"
assay_result = "102% (inactive)"

[[record]]
compound = "COc1nc(C)cnc1NS(=O)(=O)c1cccnc1-c1ccc(-c2nnco2)cc1"
assay_result = "104% (inactive)"

[[record]]
compound = "OCCn1cc(-c2cnc3nnn(Cc4ccc5ncccc5c4)c3n2)cn1"
assay_result = "102% (inactive)"

[[record]]
compound = "CS(=O)(=O)c1ccc(C(=O)Nc2ccc(Cl)c(-c3ccccn3)c2)c(Cl)c1"
assay_result = "106% (inactive)"

[[record]]
compound = "Cn1cnc2c(F)c(Nc3ccc(Br)cc3Cl)c(C(=O)NOCCO)cc21"
assay_result = "70.3% (active)"

[[record]]
compound = "CCN1CCN(Cc2ccc(-c3cc4c(N[C@H](C)c5ccccc5)ncnc4[nH]3)cc2)CC1"
assay_result = "108% (inactive)"

[[record]]
compound = "CC1COC2(CCN(c3nc(=O)c4cc(C(F)(F)F)cc([N+](=O)[O-])c4s3)CC2)O1 (stereo not given)"
assay_result = "102% (inactive)"

[[record]]
compound = "Nc1nccc(Oc2ccc(NC(=O)c3c[nH]cc(-c4ccc(F)cc4)c3=O)cc2F)c1Cl"
assay_result = "106% (inactive)"

[[record]]
compound = "CNC(=O)c1cc(Oc2ccc(NC(=O)Nc3cc(C(C)(C)C)nn3-c3ccc4ncccc4c3)c(F)c2)ccn1"
assay_result = "116% (inactive)"


* * *

Assay: drug combination growth inhibition, ovarian cancer – cell-based, oncology-focused library, rucaparib conditional, profiling panel (AID 1508598)
Settings: patient-derived ovarian cancer cells, CellTiter-Glo viability, 144 h; at 0.0781 µM; OCI-C5x cells; with rucaparib 10 µM; active compounds read low; 100% = cells with rucaparib alone
Assign labels as follows, please: label 1 for viability below 80%; label 0 for viability equal to or exceeding 80%.

[[record]]
record_smiles = "Cc1nc(Nc2n[nH]c3c2CN(C(=O)N[C@H](CN(C)C)c2ccccc2)C3(C)C)c2sccc2n1"
class = "label 0"

[[record]]
record_smiles = "COCCn1c2c([n+](Cc3cnccn3)c1C)C(=O)c1ccccc1C2=O"
class = "label 1"

[[record]]
record_smiles = "CC(C)n1nc(-c2ccc3oc(N)nc3c2)c2c(N)ncnc21"
class = "label 1"

[[record]]
record_smiles = "Cn1cc(-c2ccc3nnc(C(F)(F)c4ccc5ncccc5c4)n3n2)cn1"
class = "label 0"

[[record]]
record_smiles = "Cc1ccc(F)c(NC(=O)Nc2ccc(-c3cccc4[nH]nc(N)c34)cc2)c1"
class = "label 0"

[[record]]
record_smiles = "Cc1cnc(-c2cnc(NCCNc3ccc(C#N)cn3)nc2-c2ccc(Cl)cc2Cl)[nH]1"
class = "label 0"

[[record]]
record_smiles = "CC(=O)Nc1nc(C)c(-c2ccc(Cl)c(S(=O)(=O)NCCO)c2)s1"
class = "label 0"

[[record]]
record_smiles = "CN1CCC(CNc2ccc3ncc(-c4cccc(OC(F)(F)F)c4)n3n2)CC1"
class = "label 0"

[[record]]
record_smiles = "Nc1ccn([C@@H]2O[C@H](CO)[C@@H](O)C2(F)F)c(=O)n1"
class = "label 1"

[[record]]
record_smiles = "CN1CCN(c2cccc(Nc3nc4c(-c5ccc(S(C)(=O)=O)cc5)cccn4n3)c2)CC1"
class = "label 0"

[[record]]
record_smiles = "Cc1cccc(-c2[nH]c(C(C)(C)C)nc2-c2ccc3nccnc3c2)n1"
class = "label 0"

[[record]]
record_smiles = "COc1ncc(-c2ccc3nccc(-c4ccnnc4)c3c2)cc1NS(=O)(=O)c1ccc(F)cc1F"
class = "label 1"

[[record]]
record_smiles = "CC(=O)Nc1cccc(-n2c(=O)n(C3CC3)c(=O)c3c(Nc4ccc(I)cc4F)n(C)c(=O)c(C)c32)c1"
class = "label 0"

[[record]]
record_smiles = "CCN1CCN(Cc2ccc(-c3cc4c(N[C@H](C)c5ccccc5)ncnc4[nH]3)cc2)CC1"
class = "label 0"

[[record]]
record_smiles = "C#CC[C@H](c1nc2cc(Cl)ccc2c(=O)n1Nc1ccccc1)N(CCCN)C(=O)c1cccc(Cl)c1F"
class = "label 1"

[[record]]
record_smiles = "Cc1ccc(C(=O)N(CCCN)[C@@H](c2nc3cc(Cl)ccc3c(=O)n2Cc2ccccc2)C(C)C)cc1"
class = "label 1"

[[record]]
record_smiles = "COc1cc(OC2CCN(C)CC2)ccc1Nc1ncc2c(n1)n(C1CCCC1)c(=O)n2C"
class = "label 0"

